Source of measurements: ChEMBL document CHEMBL3991601

EXPERIMENTAL_SYSTEM: Protein kinase C theta type (Homo sapiens); further: in the data inactive means no Kd found up to 30 µM
Sequence (Q04759 whole entry): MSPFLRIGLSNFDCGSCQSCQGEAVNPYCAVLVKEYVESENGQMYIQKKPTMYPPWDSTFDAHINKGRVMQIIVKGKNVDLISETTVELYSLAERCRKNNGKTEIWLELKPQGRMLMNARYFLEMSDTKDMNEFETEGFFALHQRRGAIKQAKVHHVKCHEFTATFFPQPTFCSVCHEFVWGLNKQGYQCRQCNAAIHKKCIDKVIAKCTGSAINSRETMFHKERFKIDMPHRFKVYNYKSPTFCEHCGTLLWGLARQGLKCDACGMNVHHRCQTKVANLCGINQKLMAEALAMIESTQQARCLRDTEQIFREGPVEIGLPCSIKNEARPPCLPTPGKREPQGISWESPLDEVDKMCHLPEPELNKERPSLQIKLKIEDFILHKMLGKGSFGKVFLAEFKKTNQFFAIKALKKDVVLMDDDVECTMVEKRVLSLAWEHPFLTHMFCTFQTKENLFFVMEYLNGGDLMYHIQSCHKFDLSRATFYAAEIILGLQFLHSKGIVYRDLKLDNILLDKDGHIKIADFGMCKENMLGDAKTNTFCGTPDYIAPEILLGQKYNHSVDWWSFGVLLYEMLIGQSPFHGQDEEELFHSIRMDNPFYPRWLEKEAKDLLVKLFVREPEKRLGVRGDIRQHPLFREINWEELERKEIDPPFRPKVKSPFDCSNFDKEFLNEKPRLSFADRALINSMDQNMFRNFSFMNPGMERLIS
Calls of active or inactive are those of the source.
Valid outcomes are listed here; reply with one: active, inactive

Worked examples follow.
MOLECULE: COc1cc(F)c(F)c(Nc2ccc(I)cc2F)c1NS(=O)(=O)C1(C[C@H](O)CO)CC1
LABEL: inactive
--
MOLECULE: O=S(=O)(c1cccc2c(O)nccc12)N1CCCNCC1 [HYDROXYFASUDIL]
LABEL: inactive
--
MOLECULE: CNC(=O)c1ccc(Nc2ncc(C(F)(F)F)c(NCc3nccnc3N(C)S(C)(=O)=O)n2)cc1
LABEL: inactive

Now, please, on to the next molecule.
Task item: Recorded test call requested for COc1cc2ncnc(Nc3ccc(F)c(Cl)c3)c2cc1NC(=O)/C=C/CN1CCCCC1 [DACOMITINIB ANHYDROUS]
Reply: inactive

###

UniProt:O60361: reported Kd for various compounds.
Sequence (O60361 whole entry): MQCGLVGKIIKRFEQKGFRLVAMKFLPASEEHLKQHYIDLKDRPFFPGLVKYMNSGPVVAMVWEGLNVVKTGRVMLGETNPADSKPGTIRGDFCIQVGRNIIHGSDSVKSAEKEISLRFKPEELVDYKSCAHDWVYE
Active and inactive are the calls of the source.

Use these answered entries as a reference point.
COMPOUND: NC(=O)c1ccc(N(C(N)=O)c2c(F)cccc2F)nc1-c1ccc(F)cc1F [VX-702]
Kd: > 30 µM (inactive)
--
COMPOUND: C=CC(=O)Nc1cc(Nc2nccc(-c3cn(C)c4ccccc34)n2)c(OC)cc1N(C)CCN(C)C [OSIMERTINIB]
Kd: > 30 µM (inactive)

# input for lookup
Task item: Look up Kd with UniProt:O60361 for this compound: CN(c1ncccc1CNc1nc(Nc2ccc3c(c2)CC(=O)N3)ncc1C(F)(F)F)S(C)(=O)=O [PF-00562271]
Reply: 0.862 µM

###

EXPERIMENTAL_SYSTEM: UniProtKB Q58FF8
Sequence (Q58FF8 whole entry): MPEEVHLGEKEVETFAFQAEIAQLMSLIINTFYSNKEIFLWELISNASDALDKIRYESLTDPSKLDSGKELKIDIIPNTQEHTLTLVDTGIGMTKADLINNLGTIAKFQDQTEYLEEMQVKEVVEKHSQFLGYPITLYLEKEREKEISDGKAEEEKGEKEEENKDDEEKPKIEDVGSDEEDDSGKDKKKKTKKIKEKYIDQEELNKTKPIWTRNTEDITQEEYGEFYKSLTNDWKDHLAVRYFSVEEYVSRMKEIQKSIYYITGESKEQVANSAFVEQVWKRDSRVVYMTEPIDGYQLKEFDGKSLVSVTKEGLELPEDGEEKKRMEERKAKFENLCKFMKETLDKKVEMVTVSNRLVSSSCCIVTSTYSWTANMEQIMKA
Calls of active or inactive are those of the source.
Valid outcomes are listed here; reply with one: 1 (yes) (active), 0 (no) (inactive)

Worked examples follow.
COMPOUND: Cn1cc(-c2[nH]c3cc(NC(=O)[C@H](N)C4CCCCC4)cc4c3c2C=NNC4=O)cn1
LABEL: 0 (no)

COMPOUND: Cc1cc(Nc2nc(N[C@@H](C)c3ncc(F)cn3)ncc2Cl)n[nH]1
LABEL: 0 (no)

COMPOUND: O=c1[nH]c([C@@H]2CCCN2)nc2c1oc1ccc(Cl)cc12
LABEL: 0 (no)

Task item: Recorded test call requested for O=C(NOC[C@H](O)CO)c1ccc(F)c(F)c1Nc1ccc(I)cc1F
Reply: 0 (no)

Task item: Recorded test call requested for CC(C)(O)CC(=O)NCCn1ccc2ncnc(Nc3ccc(Oc4cccc(C(F)(F)F)c4)c(Cl)c3)c21
Reply: 0 (no)

Task item: Recorded test call requested for C[C@@]1(C(=O)Nc2ccc(F)nc2)CCCN1c1nc(Nc2cc(C3CC3)n[nH]2)c2cccn2n1
Reply: 0 (no)

Task item: Recorded test call requested for CC1(COc2ccc3c(c2)ncn3-c2ccc3cccc(N4CCC(N)CC4)c3n2)COC1
Reply: 1 (yes)

Task item: Recorded test call requested for C#Cc1cccc(Nc2ncnc3cc4c(cc23)OCCOCCOCCO4)c1
Reply: 0 (no)

Task item: Recorded test call requested for Cn1c(=O)c(F)c(Nc2ccc(I)cc2F)c2c(=O)n(C[C@@H](O)CO)cnc21
Reply: 0 (no)

Task item: Recorded test call requested for c1cc(OCCN2CCCCC2)cc(-c2n[nH]c3ccc(-c4nc[nH]n4)cc23)c1
Reply: 0 (no)

Task item: Recorded test call requested for COc1cc2ncnc3c2cc1OCCCCCN(C)Cc1ccc(Br)cc1N3
Reply: 0 (no)

Task item: Recorded test call requested for CCOc1ccn(-c2ccc(F)cc2)c(=O)c1C(=O)Nc1ccc(Oc2ccnc(N)c2Cl)c(F)c1
Reply: 0 (no)

Task item: Recorded test call requested for Cc1c(NC(=O)OC[C@@H]2COCCN2)cn2ncnc(Nc3ccc4c(cnn4Cc4cccc(F)c4)c3)c12
Reply: 0 (no)

Task item: Recorded test call requested for CN1CCN(c2nc(C3=C(c4c[nH]c5ccccc45)C(=O)NC3=O)c3ccccc3n2)CC1
Reply: 0 (no)

Task item: Recorded test call requested for COc1cc2ncnc(Nc3ccc(O)cc3)c2cc1OC
Reply: 0 (no)

Task item: Recorded test call requested for O=S(=O)(c1cccc2c(O)nccc12)N1CCCNCC1 [HYDROXYFASUDIL]
Reply: 0 (no)

Task item: Recorded test call requested for CNC(=O)c1ccc(Nc2ncc(C(F)(F)F)c(NCc3nccnc3N(C)S(C)(=O)=O)n2)cc1
Reply: 0 (no)

Task item: Recorded test call requested for COc1ccc2c(OCc3nnc4ccc(-c5ccccc5)nn34)ccnc2c1
Reply: 0 (no)

Task item: Recorded test call requested for CN(C)C/C=C/C(=O)Nc1cc2c(Nc3ccc(F)c(Cl)c3)ncnc2cc1O[C@H]1CCOC1
Reply: 0 (no)

Task item: Recorded test call requested for Cn1c(=O)n(-c2ccc(C(C)(C)C#N)cc2)c2c3cc(-c4cnc5ccccc5c4)ccc3ncc21
Reply: 0 (no)

Task item: Recorded test call requested for O[C@H]1CC[C@H](Nc2ncc3nc(Nc4c(F)cc(F)cc4F)n([C@H]4CCOC4)c3n2)CC1
Reply: 0 (no)

Task item: Recorded test call requested for COc1cc2c(N3CCN(C(=O)Nc4ccc(OC(C)C)cc4)CC3)ncnc2cc1OCCCN1CCCCC1
Reply: 0 (no)

Task item: Recorded test call requested for COc1cccc(Nc2ncnn3ccc(CN4CC[C@@H](N)[C@H](O)C4)c23)c1
Reply: 0 (no)

Task item: Recorded test call requested for Cc1cc(C(=O)Nc2cc(Oc3ccc4nc(NC(=O)C5CC5)cn4n3)ccc2C)n(C)n1
Reply: 0 (no)
